species: Homo sapiens; experiment: Binding affinity to pBR322 DNA (unknown origin) assessed as induced retardation of DNA migration at 20 to 100 uM by gel electrophoresis assay; details: dose 20-100 µM
Calls of active or inactive are those of the source. The calls are words filed in the database; no cut-off is given here.
Write down the outcome that applies. Available outcomes: 1 for active, -1 for inactive

Solved entries:
[[record]]
structure_smiles_string = "CN(C)CCN1C(=O)c2cccc3c(N4CCOCC4)c([N+](=O)[O-])cc(c23)C1=O"
qualitative_label = 1

[[record]]
structure_smiles_string = "O=C1c2cccc3c(N4CCOCC4)c([N+](=O)[O-])cc(c23)C(=O)N1CCNCCN1C(=O)c2cccc3c(N4CCOCC4)c([N+](=O)[O-])cc(c23)C1=O"
qualitative_label = 1

[[record]]
structure_smiles_string = "CN1CCN(c2c([N+](=O)[O-])cc3c4c(cccc24)C(=O)N(CCNCCN2C(=O)c4cccc5c(N6CCN(C)CC6)c([N+](=O)[O-])cc(c45)C2=O)C3=O)CC1"
qualitative_label = 1


Shift focus to the following entry.
Problem: So what was the verdict on "O=C1c2cccc3cc([N+](=O)[O-])cc(c23)C(=O)N1CCNCCN1C(=O)c2cccc3cc([N+](=O)[O-])cc(c23)C1=O" in this test?
Solution: -1

----------
test system: T-24; test: Antiproliferative activity against human T24 cells assessed as cell growth inhibition by MTT assay; format: functional, cell-based
measure: IC50 (nM)
Supply the numeric figure in nM, leaving out any unit text.

Sample records with IC50:
[[record]]
structure_smiles_string = "CN1CCN(c2c([N+](=O)[O-])cc3c4c(cccc24)C(=O)N(CCNCCN2C(=O)c4cccc5c(N6CCN(C)CC6)c([N+](=O)[O-])cc(c45)C2=O)C3=O)CC1"
system_under_test = "T-24"
measure = "IC50"
value_measured = 650

[[record]]
structure_smiles_string = "CN(C)CCN1C(=O)c2cccc3c(N4CCOCC4)c([N+](=O)[O-])cc(c23)C1=O"
system_under_test = "T-24"
measure = "IC50"
value_measured = 1540

[[record]]
structure_smiles_string = "O=C1c2cccc3c(N4CCOCC4)c([N+](=O)[O-])cc(c23)C(=O)N1CCNCCN1C(=O)c2cccc3c(N4CCOCC4)c([N+](=O)[O-])cc(c23)C1=O"
system_under_test = "T-24"
measure = "IC50"
value_measured = 1240


Next, consider the following compound.
Problem: Fill in the blank: the reported IC50 of "O=C1c2cccc3c(N4CCOCC4)c([N+](=O)[O-])cc(c23)C(=O)N1CCc1ccc2c(c1)OCO2" is ____.
Solution: 23600

----------
species: Homo sapiens; test: Binding affinity to pBR322 DNA (unknown origin) assessed as DNA intercalation at 20 to 100 uM by electrophoresis assay; conditions: dose 20-100 µM
Activity calls are given as the source filed them. No cut-off for these calls is given here.
Write down the outcome that applies. Available outcomes: TRUE (active), FALSE (inactive)

[[record]]
structure_smiles_string = "CN(C)CCN1C(=O)c2cccc3c(N4CCOCC4)c([N+](=O)[O-])cc(c23)C1=O"
qualitative_label = "TRUE"

[[record]]
structure_smiles_string = "CN1CCN(c2c([N+](=O)[O-])cc3c4c(cccc24)C(=O)N(CCNCCN2C(=O)c4cccc5c(N6CCN(C)CC6)c([N+](=O)[O-])cc(c45)C2=O)C3=O)CC1"
qualitative_label = "TRUE"

[[record]]
structure_smiles_string = "O=C1c2cccc3cc([N+](=O)[O-])cc(c23)C(=O)N1CCNCCN1C(=O)c2cccc3cc([N+](=O)[O-])cc(c23)C1=O"
qualitative_label = "FALSE"


Shift focus to the following entry.
Problem: So what was the verdict on "O=C1c2cccc3c(N4CCOCC4)c([N+](=O)[O-])cc(c23)C(=O)N1CCNCCN1C(=O)c2cccc3c(N4CCOCC4)c([N+](=O)[O-])cc(c23)C1=O" in this test?
Solution: TRUE
